Reference for the values: patent US20230303994

target: pre-pro-human insulin
metric: Activity PPI cleavage

trypsin variant SEQ ID NO: 76 (protein) IVGGYTCAANSIPYQVSLNSGSHRCGGSLINSQWVVSAAHCYKSRIQVRLGEHNIDVLEGNEQFINAAKIITHPNFNENTLDNDIMLIKLSSPATLNSRVATVSLPRSCAAAGTECLISGWGNTKSSGSSYPSLLQCLKAPVLSDSSCKSSYPGQITGNMICVGFLEGGKDACQGDSGGPVVCNGQLQGIVSSGYGCAQKNKPGVYTKVCNYVNWIQQTIAAN | yes
trypsin variant SEQ ID NO: 17 (protein) IVGGYTCAANSIPYQVSLNSGSHRCGGSLINSQWVVSAAHCYKSRIQVRLGEHNIDVLEGNEQFINAAKIITHPNFNGNTLDNDIMLIKLSSPATLNSRVATVSLPRSCAAAGTECLISGWGNTYSSGSSYPSLLQCLKAPVLSDSSCKSSYPGQITGNMICVGFLEGGKDACQGDSGGPVVCNGQLQGIVSSGYGCAQKNKPGVYTKVCNYVNWIQQTIAAN | yes
trypsin variant SEQ ID NO: 33 (protein) IVGGYTCAANSIPYQVSLNSGSHRCGGSLINSQWVVSAAHCYKSRIQVRLGEHNIDVLEGNEQFINAAKIITHPNFNGNTLDNDIMLIKLSSPATLNSRVATVSLPTSCAAAGTECLISGWGNTKSSGSSYPSLLQCLKAPVLSDSSCKSSYPGQITGNMICVGFLEGGKDACQGDSGGPVVCNGQLQGIVSSGYGCAQKNKPGVYTKVCNYVNWIQQTIAAN | yes
